target: DN-III-NS antigen (produced by Fapon Biotech InC.) (dengue virus); assay: capture ELISA, antibody sample 27-fold dilution
endpoint label: OD450 (ref. 630 nm) (OD)
I only need the number, in OD, no unit after it.

Determine from records and report OD450 (ref. 630 nm) for Mutation 3 (antibody, V domains shown) VH: EVQLQQSGTELVRPGALVKLSCKASGFNIKLYYVHWVKQRPRQGLEWIGWIDPKNGKTLYDPKCQDKASITSDTSTNTAYLQLRSLTSEDTAVYYCVTAYVRFVYWGQGTLVTVSA VL: QIVLTQSPAIMSAFPGERVTMTCSASSSVVYMYWHQQKPGSSPRLLIYCTSNVASGLPVRFSGSGSGTSYSLTISRDEAMDAATYYCQQRSSTPRTFGGGTKLEIKR
0.031
